- Tested on: MDA-MB-468 breast
- EXPERIMENT: NCI tumour cell line growth inhibition, 48 h; in the data active = GI50 below about 0.43 µM; inactive = the rest
Mark one answer only. Choices: active, inactive

| COMPOUND | TARGET_OF_ASSAY | CATEGORY |
| --- | --- | --- |
| O=C(CCCSc1nc(-c2ccc(Cl)cc2)cc(-c2ccc(Cl)cc2)n1)NO | MDA-MB-468 breast | inactive |
| Cn1cc(-c2csc(-c3cccc(F)c3)n2)c2cccnc21 | MDA-MB-468 breast | inactive |
| COc1cccc(NCc2nnc(Nc3ccc(Cl)cc3)c3ccccc23)c1 | MDA-MB-468 breast | inactive |
| NC(N)=NC(N)=Nc1cc2ccccc2c2ccccc12 | MDA-MB-468 breast | inactive |
| Cc1cc(C)cc(Nc2cc(C)nc3nc(C(F)(F)F)nn23)c1 | MDA-MB-468 breast | inactive |
| Cn1cc(C2=C(c3cn(CCCN=C(N)N)c4ccccc34)C(=O)NC2=O)c2ccccc21 | MDA-MB-468 breast | inactive |
| COC(=O)[C@]12CCC(C)(C)C[C@H]1C1=CC[C@@H]3[C@@]4(C)C/C(=C/c5cccnc5)C(=O)C(C)(C)[C@@H]4CC[C@@]3(C)[C@]1(C)CC2 | MDA-MB-468 breast | inactive |
| C[C@]12CC[C@@H]3c4ccc(Oc5nc(N6CC6)nc(N6CC6)n5)cc4CC[C@H]3[C@@H]1CCC2=O | MDA-MB-468 breast | inactive |
| C=C1C(=O)O[C@H]2[C@H]1CC/C(COC(=O)/C=C\C(=O)NCc1ccc(Cn3c(=O)sn(-c4ccc(C#N)cc4)c3=O)cc1)=C\CC[C@@]1(C)O[C@@H]21 | MDA-MB-468 breast | inactive |
| CC12CCCC(CC(=O)c3[nH]c4ccccc4c31)C2 (stereo unspecified) | MDA-MB-468 breast | active |

Kindly review the next compound as well.
Prompt line: Recorded call for `COc1ccc(-c2cc3c(nn2)-c2ccccc2C3=O)cc1` ?
Response line: inactive

Hello, the source for this data is PubChem BioAssay (NCI), in case you need it.
